biological target: Cytosolic phospholipase A2 (Homo sapiens, UniProt P47712); assay: Inhibition of cPLA2alpha activity assessed by A23187-induced arachidonic acid release in human platelet; type: functional
Sequence (P47712 whole entry): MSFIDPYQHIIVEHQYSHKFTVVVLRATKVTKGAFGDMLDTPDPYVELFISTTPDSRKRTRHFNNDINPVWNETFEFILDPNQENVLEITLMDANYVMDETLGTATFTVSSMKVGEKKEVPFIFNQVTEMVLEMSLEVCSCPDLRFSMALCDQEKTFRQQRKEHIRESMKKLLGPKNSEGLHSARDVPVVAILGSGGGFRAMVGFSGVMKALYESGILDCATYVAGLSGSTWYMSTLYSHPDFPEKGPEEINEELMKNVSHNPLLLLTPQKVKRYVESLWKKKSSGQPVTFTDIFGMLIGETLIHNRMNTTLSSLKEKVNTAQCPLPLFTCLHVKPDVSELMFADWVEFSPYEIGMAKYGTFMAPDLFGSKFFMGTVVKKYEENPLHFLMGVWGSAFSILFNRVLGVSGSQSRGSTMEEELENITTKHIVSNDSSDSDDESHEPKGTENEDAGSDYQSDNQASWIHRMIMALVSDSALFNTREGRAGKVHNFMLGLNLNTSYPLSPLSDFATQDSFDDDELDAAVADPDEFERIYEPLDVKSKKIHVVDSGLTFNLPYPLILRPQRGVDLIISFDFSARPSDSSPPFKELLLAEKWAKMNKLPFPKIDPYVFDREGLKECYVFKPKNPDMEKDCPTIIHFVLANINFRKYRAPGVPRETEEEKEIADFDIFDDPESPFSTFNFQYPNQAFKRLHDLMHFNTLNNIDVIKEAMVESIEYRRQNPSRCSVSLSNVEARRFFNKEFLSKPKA
Lab note: anything with IC50 below 1000 nM is marked yes; values at 1000 nM or higher are marked no.

Hi there! Is IC50 for CCCCCCCCCCOc1ccc(OCC(=O)Cn2cc(C(=O)OC)c3cc(C(=O)O)ccc32)cc1 below 1000 nM, do you know?
yes

Now consider CCCCCCCCc1ccc(OCC(=O)Cn2ccc3cc(C(=O)O)ccc32)cc1 and answer again.
yes

Now consider CCCCCCCCCCOc1ccc(OCC(=O)Cn2ccc3cc(C(=O)O)ccc32)cc1 and answer again.
yes

Now consider CCCCCCCCc1ccc(OCC(=O)Cn2cc(C=O)c3cc(C(=O)O)ccc32)cc1 and answer again.
yes

Now consider CCCCCCCCc1ccc(OCC(=O)Cn2ccc3ccc(C(=O)O)cc32)cc1 and answer again.
no

Now consider CCCCCCCCc1ccc(OCC(=O)Cn2cc(C(=O)OC)c3cc(C(=O)O)ccc32)cc1 and answer again.
no

Now consider CCCCCCCCc1ccc(OCC(=O)Cn2cc(C(=O)O)c3cc(C(=O)O)ccc32)cc1 and answer again.
no

Now consider CCCCCCCCc1ccc(OCC(=O)Cn2cc(C#N)c3cc(C(=O)O)ccc32)cc1 and answer again.
yes

Now consider CCCCCCCCc1ccc(OCC(=O)Cn2ccc3cc(C(N)=O)ccc32)cc1 and answer again.
yes

Now consider CCCCCCCCc1ccc(OCC(=O)Cn2cc(C(C)(C)C)c3cc(C(=O)O)ccc32)cc1 and answer again.
no

Now consider CCCCCCCCCCOc1ccc(OCC(=O)COc2ccc(C(=O)O)cc2)cc1 and answer again.
yes

Now consider CCCCCCCCc1ccc(OCC(=O)Cn2ccc3cc(C=O)ccc32)cc1 and answer again.
no

Now consider CCCCCCCCc1ccc(OCC(=O)Cn2c(C(=O)O)cc3ccccc32)cc1 and answer again.
no

Now consider CCCCCCCCc1ccc(OCC(=O)Cn2cc(Cl)c3cc(C(=O)O)ccc32)cc1 and answer again.
no
